Test system: TK-10
Assay: NCI tumour cell line growth inhibition, 48 h
Active and inactive are the calls of the source. Rule as the data show it: active = GI50 up to about 1.1 µM and inactive = higher.
molecules and their reported GI50

Here is how some molecules turned out for GI50.
In [3]: df
Out[3]:
                                   molecule  metric           testresult
0               CCOC(=N)CC(=O)Nc1ccc(Cl)cc1    GI50  > 100 µM (inactive)
1  CC1=NN(c2cccc(S(=O)(=O)O)c2)C2(C1)C(Cl)C(=O)N2c1nc2ccccc2s1 (stereo not given)    GI50   14.2 µM (inactive)

Would you kindly share the measured GI50 for O=C(O)CCC1CCc2cccc(OCC(=O)O)c2C1=O (stereo not given) ? > 100 µM (inactive)

// next record COP(=O)(OC)C(Nc1ccc(Cc2ccc(NC(c3ccco3)P(=O)(OC)OC)cc2)cc1)c1ccco1 (stereo not given) 8.77 µM (inactive)

// next record CC(C)(C)c1ccc2c(c1)CNCCNCCNCc1cc(C(C)(C)C)ccc1OCC1(CO2)COc2ccc(C(C)(C)C)cc2CNCCNCCNCc2cc(C(C)(C)C)ccc2OC1 1.55 µM (inactive)

// next record COc1ccc(C2(Cl)C(Cl)(C(F)(F)F)C2(Cl)C(F)(F)F)cc1 (stereo not given) 18.1 µM (inactive)

// next record CC1=CC(=O)/C(=C/NC(=S)NCCc2ccccc2)C(=O)O1 6.44 µM (inactive)

// next record COc1ccc(C2=C3SC=c4ccccc4=C3ON=C2c2ccccc2)cc1 > 100 µM (inactive)

// next record CC(=O)Nc1ccc(/C=c2\sc3nnc(-c4cccnc4)n3c2=O)cc1 21.6 µM (inactive)

// next record CCC(Cc1cnc2nc(N)nc(N)c2n1)c1ccc(C(=O)NC(CCC(=O)O)C(=O)O)cc1 (stereo not given) > 100 µM (inactive)

Reference source for all entries: ChEMBL document CHEMBL1201862
